test system: CCRF-CEM leukemia; test: NCI tumour cell line growth inhibition, 384-well format
Quantity: TGI

Molecule	System name	Observed measurement
C=CCN(/C=C1\C(=O)O[C@H](COC)[C@@]2(C)C1=C(O)C(=O)C1=C2[C@H](OC(C)=O)C[C@]2(C)C(=O)CC[C@@H]12)CC=C	CCRF-CEM leukemia	4530 nM
O=C1c2ccccc2C(=O)C(Cl)C1Cl (centres undefined)	CCRF-CEM leukemia	2840 nM
CNC(C)C(=O)N[C@H](C(=O)N1CCC[C@@H]1CN(CCc1ccccc1)C(=O)C(F)(F)F)[C@H](C)OCC#CC#CCO[C@H](C)[C@H](NC(=O)[C@H](C)NC)C(=O)N1CCC[C@H]1CN(CCc1ccccc1)C(=O)C(F)(F)F (some centres undefined)	CCRF-CEM leukemia	1430 nM

# query: TGI of entry Cc1cc(-c2nc(-c3ccc(OC(F)(F)F)cc3)no2)nn1Cc1ccnc(N2CCN(C3CC3)CC2)c1
< 10 nM

###

test system: HOP-92 NSCLC; assay: NCI tumour cell line growth inhibition, 384-well format; in the data active means GI50 below about 0.43 µM; inactive means the rest
Use one of these outcomes when replying: active, inactive

Example entries and their recorded answers appear below.
Compound	Classification
Cc1cc(-c2nc(-c3ccc(OC(F)(F)F)cc3)no2)nn1Cc1ccnc(N2CCN(C3CC3)CC2)c1	inactive
CC[C@H](C)n1cc(C)c2c(C(=O)NCc3c(C)cc(C)[nH]c3=O)cc(-c3ccc(N4CCNCC4)nc3)cc21	inactive
C=CCN(/C=C1\C(=O)O[C@H](COC)[C@@]2(C)C1=C(O)C(=O)C1=C2[C@H](OC(C)=O)C[C@]2(C)C(=O)CC[C@@H]12)CC=C	inactive

Status in this test for CNC(C)C(=O)N[C@H](C(=O)N1CCC[C@@H]1CN(CCc1ccccc1)C(=O)C(F)(F)F)[C@H](C)OCC#CC#CCO[C@H](C)[C@H](NC(=O)[C@H](C)NC)C(=O)N1CCC[C@H]1CN(CCc1ccccc1)C(=O)C(F)(F)F (some centres undefined) ?
active

Reference source: PubChem BioAssay (NCI)
